System: A498 renal
Assay: NCI tumour cell line growth inhibition, 48 h
*1 amine or outer side, *2 acyl side, *3 side chain or, on linkers, in order; H or OH if unused. Where a SMILES comes first, the peptide text is derived from it. Bridges are numbered along the chain shown (N, C = ends). Roman numbers before positions name the chains, in order. [ ]: non-standard residue; d: D form. Actinocin(9to1) = Cc1c2oc3c(C)ccc(C(=O)[*:1])c3nc-2c(C(=O)[*:2])c(N)c1=O; NMeV = CN[CH](C(=O)O)C(C)C; Sar = CNCC(=O)O
Lab note: compare TGI against 8 µM. Equal or greater, write t. Smaller, write f.

Some entries whose results are on file:
{"columns": ["Molecule", "Category"],
 "data": [
  ["O=C(O)Cn1ncn(NC(=O)Cc2ccccc2)c1=S", "t"],
  ["C=C1[C@@H](C)[C@H]2[C@H](Cc3ccccc3)NC(=O)[C@]23OC(=O)/C=C/[C@H](O)CCC[C@@H](C)C/C=C/[C@H]3[C@@H]1O", "t"],
  ["COc1ccccc1-[n+]1cc(-c2ccc(-c3ccccc3)cc2)n2c1CCCCC2", "f"],
  ["Oc1ccc(/C=N\\Nc2ccccn2)c(O)c1", "f"]
]}

Lookup: Could you tell me if the measured TGI of COC(C[C@H]1CCCC[C@]1(O)/C(=C\CO[Si](C(C)C)(C(C)C)C(C)C)Sc1ccccc1)OC reaches 8 µM or more?
Found: t

Lookup: Could you tell me if the measured TGI of C=C1C(=O)O[C@H]2[C@H]1CC/C(COC(=O)NCc1cc3ccccc3[nH]1)=C\CC[C@@]1(C)O[C@@H]21 reaches 8 µM or more?
Found: t

Lookup: Could you tell me if the measured TGI of CC(C)C(=O)/C=C/c1ccccc1 reaches 8 µM or more?
Found: t

Lookup: Could you tell me if the measured TGI of O=c1cc(C(F)(F)F)c2cc3c(cc2o1)NCCC3 reaches 8 µM or more?
Found: t

Lookup: Could you tell me if the measured TGI of CCN(CC)c1ccc(/C=C\c2cc(C)c3cc(C)ccc3n2)cc1 reaches 8 µM or more?
Found: t

Lookup: Could you tell me if the measured TGI of CSc1nc(NC2OCC(OC(C)=O)C(OC(C)=O)C2OC(C)=O)c2c(OC(C)=O)c(C)c(=O)oc2n1 (centres undefined) reaches 8 µM or more?
Found: t

Lookup: Could you tell me if the measured TGI of O=C1Sc2cc3ccccc3cc2C(=O)Sc2cc3ccccc3cc21 reaches 8 µM or more?
Found: t

Lookup: Could you tell me if the measured TGI of COc1cccc(OC/C(N=Cc2ccncc2)=N/NC(=O)c2ccncc2)c1 reaches 8 µM or more?
Found: t

Lookup: Could you tell me if the measured TGI of COc1cc(Nc2nc3cc(N)cc(N)c3nc2-c2ccccc2)cc(OC)c1 reaches 8 µM or more?
Found: t

Lookup: Could you tell me if the measured TGI of Cc1c2oc3c(C)ccc(C(=O)NC4C(=O)NC(Cc5ccc(O)cc5)C(=O)N5CCCC5C(=O)N(C)CC(=O)N(C)C(C(C)C)C(=O)OC4C)c3nc-2c(C(=O)NC2C(=O)NC(Cc3ccc(O)cc3)C(=O)N3CCCC3C(=O)N(C)CC(=O)N(C)C(C(C)C)C(=O)OC2C)c(N)c1=O (centres undefined) (I: TYP[Sar][NMeV] / II: TYP[Sar][NMeV]; ester I:1-I:C, II:1-II:C; linker I:N-II:N via Actinocin(9to1); configuration not given here) reaches 8 µM or more?
Found: t

Lookup: Could you tell me if the measured TGI of CC(C)Oc1cc2c(cc1O)CC[C@@H]1[C@@H]2CC[C@]2(C)[C@@H](O)CC[C@@H]12 reaches 8 µM or more?
Found: t

Lookup: Could you tell me if the measured TGI of NC(=O)c1cnc(N[C@@H]2CCCC[C@@H]2N)nc1Nc1cccc(-n2nccn2)c1 reaches 8 µM or more?
Found: t

Lookup: Could you tell me if the measured TGI of Cc1cccc(-c2nc3c(C(=O)NCCN(C)C)cccc3[nH]2)c1 reaches 8 µM or more?
Found: f

Lookup: Could you tell me if the measured TGI of CCOc1ccc(N=Cc2cccc3cccnc23)cc1 reaches 8 µM or more?
Found: t

Lookup: Could you tell me if the measured TGI of O=c1c2ccccc2c2ccccc2c(=O)n1-c1cc2c3ccccc3ccc2c2ccccc12 reaches 8 µM or more?
Found: t

Lookup: Could you tell me if the measured TGI of O=C1C(Cl)=C(Cl)C(=O)N1C1C2CC3CC(C2)CC1C3 (centres undefined) reaches 8 µM or more?
Found: t
